From: patent US20190315864A1

# measurement.target: T1, Fc protein
# T1 construct: Counter-screen for the Fc part of CTLA4-Fc
# procedure.details: ELISA, Fc protein coated, 10 ng VHH/well
metric.name: OD (against Fc) (OD405)
The reply should be a number in OD405, with the unit left off.

Qu. Field request: OD (against Fc) | item: CTLA4 heavy chain single domain antibody No. 128 (VHH, Camel VHH expressed in E. coli (PET32b), nickel-purified) VHH: QVQLQESGGGSVQAGGSLKLSCAASGYTDYTYNTSCMGWFRQTPGKERERVATVNKVGSTIYADSVKGRFTISKDNVKNTLYLQMNSLKPEDTAMYYCAARGSWSCSQFWGDFGYWGQGTQVTVSS
Ans. 0.036

Qu. Also check CTLA4 heavy chain single domain antibody No. 155 (VHH, Camel VHH expressed in E. coli (PET32b), nickel-purified) VHH: QVQLQESGGGPVQAGGSLRLSCAVSKYPYSGSCMGWFRQAPGKEREGVAAMFTGTGSTYYADSVKGRFTISQNVAKNTLDLQMNSLKPEDTAMYYCAVDLLPRSTRCLDYGLRTYNYWGQGTQVTVSS
Ans. 0.051
